Tested on: Staphylococcus aureus
Test: In vitro minimum inhibitory concentration against Staphylococcus aureus MB2865.
Format: functional
For each record, write down the corresponding MIC.
Write down the numeric answer in µg/mL and omit the unit.

# get_value(readout='MIC', item= CC[C@H]1OC(=O)[C@H](C)[C@@H](O[C@H]2C[C@@](C)(OC)C(N)[C@H](C)O2)[C@H](C)[C@@H](O[C@@H]2O[C@H](C)C[C@H](N(C)C)[C@H]2O)[C@](C)(O)C[C@@H](C)N(C)C[C@H](C)[C@@H](O)[C@]1(C)O (some centres undefined) )
2

# get_value(readout='MIC', item= C=CCN1C[C@H](C)[C@@H](O)[C@](C)(O)[C@@H](CC)OC(=O)[C@H](C)[C@@H](O[C@H]2C[C@@](C)(OC)C(N)[C@H](C)O2)[C@H](C)[C@@H](O[C@@H]2O[C@H](C)C[C@H](N(C)C)[C@H]2O)[C@](C)(O)C[C@H]1C (some centres undefined) )
2

# get_value(readout='MIC', item= CC[C@H]1OC(=O)[C@H](C)[C@@H](O[C@H]2C[C@@](C)(OC)[C@@H](O)[C@H](C)O2)[C@H](C)[C@@H](O[C@@H]2O[C@H](C)C[C@H](N(C)C)[C@H]2O)[C@](C)(O)C[C@@H](C)C(=O)[C@H](C)[C@@H](O)[C@]1(C)O [ERYTHROMYCIN] )
0.25

# get_value(readout='MIC', item= CC[C@H]1OC(=O)[C@H](C)[C@@H](O[C@H]2C[C@@](C)(OC)[C@H](n3cccc3)[C@H](C)O2)[C@H](C)[C@@H](O[C@@H]2O[C@H](C)C[C@H](N(C)C)[C@H]2OC(=O)OCC2c3ccccc3-c3ccccc32)[C@](C)(O)C[C@@H](C)N(C)C[C@H](C)[C@@H](O)[C@]1(C)O )
8

# get_value(readout='MIC', item= CC[C@H]1OC(=O)[C@H](C)[C@@H](O[C@H]2C[C@@](C)(OC)[C@H](N)[C@H](C)O2)[C@H](C)[C@@H](O[C@@H]2O[C@H](C)C[C@H](N(C)C)[C@H]2OC(=O)OCC2c3ccccc3-c3ccccc32)[C@](C)(O)C[C@@H](C)N(CCF)C[C@H](C)[C@@H](O)[C@]1(C)O )
0.25

# get_value(readout='MIC', item= CC[C@H]1OC(=O)[C@H](C)[C@@H](O[C@H]2C[C@@](C)(OC)[C@@H](O)[C@H](C)O2)[C@H](C)[C@@H](O[C@@H]2O[C@H](C)C[C@H](N(C)C)[C@H]2O)[C@](C)(O)C[C@@H](C)CN(C)[C@H](C)[C@@H](O)[C@]1(C)O [AZITHROMYCIN] )
1

# get_value(readout='MIC', item= CCCN1C[C@H](C)[C@@H](O)[C@](C)(O)[C@@H](CC)OC(=O)[C@H](C)[C@@H](O[C@H]2C[C@@](C)(OC)C(N)[C@H](C)O2)[C@H](C)[C@@H](O[C@@H]2O[C@H](C)C[C@H](N(C)C)[C@H]2O)[C@](C)(O)C[C@H]1C (some centres undefined) )
1

# get_value(readout='MIC', item= C=CCN1C[C@H](C)[C@@H](O)[C@](C)(O)[C@@H](CC)OC(=O)[C@H](C)[C@@H](O[C@H]2C[C@@](C)(OC)[C@@H](N)[C@H](C)O2)[C@H](C)[C@@H](O[C@@H]2O[C@H](C)C[C@H](N(C)C)[C@H]2OC(=O)OCC2c3ccccc3-c3ccccc32)[C@](C)(O)C[C@H]1C )
1

# get_value(readout='MIC', item= CC[C@H]1OC(=O)[C@H](C)[C@@H](O[C@H]2C[C@@](C)(OC)[C@@H](O)[C@H](C)O2)[C@H](C)[C@@H](O[C@@H]2O[C@H](C)C[C@H](N(C)C)[C@H]2O)[C@](C)(O)C[C@@H](C)N(C)C[C@H](C)[C@@H](O)[C@]1(C)O [L-701677] )
0.5

# get_value(readout='MIC', item= C=CCN1C[C@H](C)[C@@H](O)[C@](C)(O)[C@@H](CC)OC(=O)[C@H](C)[C@@H](O[C@H]2C[C@@](C)(OC)[C@H](N)[C@H](C)O2)[C@H](C)[C@@H](O[C@@H]2O[C@H](C)C[C@H](N(C)C)[C@H]2OC(=O)OCC2c3ccccc3-c3ccccc32)[C@](C)(O)C[C@H]1C )
1

# get_value(readout='MIC', item= CC[C@H]1OC(=O)[C@H](C)[C@@H](O[C@H]2C[C@@](C)(OC)[C@@H](N)[C@H](C)O2)[C@H](C)[C@@H](O[C@@H]2O[C@H](C)C[C@H](N(C)C)[C@H]2OC(=O)OCC2c3ccccc3-c3ccccc32)[C@](C)(O)C[C@@H](C)N(C)C[C@H](C)[C@@H](O)[C@]1(C)O )
1

# get_value(readout='MIC', item= CC[C@H]1OC(=O)[C@H](C)[C@@H](O[C@H]2C[C@@](C)(OC)[C@@H](n3cccc3)[C@H](C)O2)[C@H](C)[C@@H](O[C@@H]2O[C@H](C)C[C@H](N(C)C)[C@H]2OC(=O)OCC2c3ccccc3-c3ccccc32)[C@](C)(O)C[C@@H](C)N(C)C[C@H](C)[C@@H](O)[C@]1(C)O )
4

# get_value(readout='MIC', item= CC[C@H]1OC(=O)[C@H](C)[C@@H](O[C@H]2C[C@@](C)(OC)[C@H](O)[C@H](C)O2)[C@H](C)[C@@H](O[C@@H]2O[C@H](C)C[C@H](N(C)C)[C@H]2O)[C@](C)(O)C[C@@H](C)N(C)C[C@H](C)[C@@H](O)[C@]1(C)O )
0.5

# get_value(readout='MIC', item= CC[C@H]1OC(=O)[C@H](C)[C@@H](O[C@H]2C[C@@](C)(OC)[C@@H](N)[C@H](C)O2)[C@H](C)[C@@H](O[C@@H]2O[C@H](C)C[C@H](N(C)C)[C@H]2OC(=O)OCC2c3ccccc3-c3ccccc32)[C@](C)(O)C[C@@H](C)N(CCF)C[C@H](C)[C@@H](O)[C@]1(C)O )
0.5

---

Tested on: Staphylococcus aureus
Test: In vitro minimum inhibitory concentration against Staphylococcus aureus MB2865.
Format: functional
For each record, write down the corresponding MIC.
Write down the numeric answer in µg/mL and omit the unit.

# get_value(readout='MIC', item= CC[C@H]1OC(=O)[C@H](C)[C@@H](O[C@H]2C[C@@](C)(OC)[C@@H](NC(C)=O)[C@H](C)O2)[C@H](C)[C@@H](O[C@@H]2O[C@H](C)C[C@H](N(C)C)[C@H]2OC(=O)OCC2c3ccccc3-c3ccccc32)[C@](C)(O)C[C@@H](C)N(C)C[C@H](C)[C@@H](O)[C@]1(C)O )
2

# get_value(readout='MIC', item= CC[C@H]1OC(=O)[C@H](C)[C@@H](O[C@H]2C[C@@](C)(OC)[C@H](N(C)C)[C@H](C)O2)[C@H](C)[C@@H](O[C@@H]2O[C@H](C)C[C@H](N(C)C)[C@H]2OC(=O)OCC2c3ccccc3-c3ccccc32)[C@](C)(O)C[C@@H](C)N(C)C[C@H](C)[C@@H](O)[C@]1(C)O )
32

# get_value(readout='MIC', item= CC[C@H]1OC(=O)[C@H](C)[C@@H](O[C@H]2C[C@@](C)(OC)[C@H](N)[C@H](C)O2)[C@H](C)[C@@H](O[C@@H]2O[C@H](C)C[C@H](N(C)C)[C@H]2OC(=O)OCC2c3ccccc3-c3ccccc32)[C@](C)(O)C[C@@H](C)N(C)C[C@H](C)[C@@H](O)[C@]1(C)O )
1

---

System: Staphylococcus aureus
Test: In vitro minimum inhibitory concentration against Staphylococcus aureus MB2865.
Assay type: functional
For each record, write down the corresponding MIC.
Write down the numeric answer in µg/mL and omit the unit.

# get_value(readout='MIC', item= CC[C@H]1OC(=O)[C@H](C)[C@@H](O[C@H]2C[C@@](C)(OC)[C@H](NC(C)=O)[C@H](C)O2)[C@H](C)[C@@H](O[C@@H]2O[C@H](C)C[C@H](N(C)C)[C@H]2OC(=O)OCC2c3ccccc3-c3ccccc32)[C@](C)(O)C[C@@H](C)N(C)C[C@H](C)[C@@H](O)[C@]1(C)O )
16

# get_value(readout='MIC', item= CC[C@H]1OC(=O)[C@H](C)[C@@H](O[C@H]2C[C@@](C)(OC)[C@@H](N(C)C)[C@H](C)O2)[C@H](C)[C@@H](O[C@@H]2O[C@H](C)C[C@H](N(C)C)[C@H]2OC(=O)OCC2c3ccccc3-c3ccccc32)[C@](C)(O)C[C@@H](C)N(C)C[C@H](C)[C@@H](O)[C@]1(C)O )
8
